system: OVCAR-8; assay: NCI tumour cell line growth inhibition, 48 h
Activity calls are given as the source filed them. No stated cut-off is given here; in the data, active = GI50 up to about 1.1 µM and inactive = higher.
outcome measure: GI50

compound=N#C/N=C(/NCc1ccccc1)N(Cc1ccccc1)Cc1ccccc1 observed_result="20.2 µM (inactive)"
compound="CCn1cc(C(c2ccc(Cl)cc2)n2ccnc2)c2cc(Br)ccc21 (stereo not given)" observed_result="10.8 µM (inactive)"
compound=CCOC(=O)N1CCc2cc(OC)c(OC)c3c2c1cc1cc(OC)c(OC)cc13 observed_result="4.8 µM (inactive)"
compound="CC(CO)CCC(O)C(C)(O)C1CCC2(O)C3=CC(=O)C4CC(O)C(O)CC4(C)C3CCC12C (stereo not given)" observed_result="> 100 µM (inactive)"
compound="O=C1C2Cc3c(n(C(=O)c4ccccc4)c4ccccc34)CC2C(=O)N1c1ccc(Nc2ccc(N3C(=O)C4Cc5c(n(C(=O)c6ccccc6)c6ccccc56)CC4C3=O)cc2)cc1 (stereo not given)" observed_result="> 100 µM (inactive)"
compound=OC1(C(Sc2ccccc2)Sc2ccccc2)CCCCCC1 observed_result="38.8 µM (inactive)"
compound="CCC(C)c1c(Cl)nc(Cl)nc1Cl (stereo not given)" observed_result="17.9 µM (inactive)"
compound=COc1c2c(cc3occ(-c4ccc(CC=C(C)C)cc4)c(=O)c13)OC(C)(C)C=C2 observed_result="48.4 µM (inactive)"
compound=C=Nc1ccc([N+](=O)[O-])cc1 observed_result="> 100 µM (inactive)"
compound=CC(=O)OCC1=C(COC(C)=O)C(=O)c2c(O)ccc(O)c2C1=O observed_result="10.2 µM (inactive)"

Values were extracted from ChEMBL document CHEMBL1201862.
